Numbers sourced from patent US20030073628A1.

molecular target: guanylate cyclase receptor (on human T84 colon carcinoma cells) (human); assay: cell-based or functional assay
Positions of bridges follow the written chain, without caps; N, C: chain ends. No end group written: not given here.
assay.metric: cGMP Level (pmol/well), T84 cells, 1 micromolar peptide for 30 minutes

binder="NEECELCVNVACTGCL (disulfide 4-12, 7-15) [[Glu^2, Glu3]-UG (SP302)]" result_number=225
binder="NDDCELCVNVACTGCL (disulfide 4-12, 7-15) [human uroguanylin, bicyclo [4,12; 7,15] (SP301)]" result_number=205

(P) NEDCELCVNVACTGCL (disulfide 4-12, 7-15) [[Glu^2]-UG (SP303)]
(Q) NDECELCVNVACTGCL (disulfide 4-12, 7-15) [[Glu^3]-UG (SP304)]
Which numeric cGMP Level (pmol/well), T84 cells, 1 micromolar peptide for 30 minutes is bigger, that of P or that of Q ? Response format: the label of the selected entry. Q
(Q: 315 pmol/well, P: 195 pmol/well)
